Data origin: PubChem BioAssay AID1159580

Test: chemical genetic growth profiling, strain panel (AID 1159580);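 note: tested at 20 µM; growth read once vehicle control cultures reached saturation at 30 °C; 1 = growth at the plate median or of vehicle wells; lower values mean less growth of the strain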
Details: S. cerevisiae deletion strains, growth OD, locus YPL256C, strain CLN2, hits give low values
The whole screen tested about 5,500 compounds, of which about 2,000 (36%) were called active. Inconclusive results (about 18%) are left out. This is one part of the list.
# normalized growth values compiled below
Lab note: jot the number down without any unit.

[[record]]
compound = "O=C(/C=C/c1ccccc1)O[C@H]1C[C@@H](O)[C@]2(O)C=CO[C@@H](O[C@@H]3O[C@H](CO)[C@@H](O)[C@H](O)[C@H]3O)[C@H]12"
readout_value = 0.943

[[record]]
compound = "CNC1(C)C2CCC(C2)C1(C)C (centres undefined)"
readout_value = 0.946

[[record]]
compound = "NC(N)=Nc1nc(-c2cc(Cl)sc2Cl)cs1"
readout_value = 0.89


What value of measured normalized growth is listed for NC(N)=Nc1nc(CSCCC(N)=NS(N)(=O)=O)cs1 ?
0.961
